Experimental system: GORASP2, Q9H8Y8
Measurement protocol: holdup assay
Set-up: key: below the threshold = too weak to quantify, mostly under pKd 3.1 to 4
Condition parameters: plain residues with an end cap or a label only (N-terminal biotin on a linker: ttds)

{"Binder": "PKTPPTDTSV [KIR3DL3, Q8N743]", "pKd": 4.04}
{"Binder": "GQDSREETQL [KCNT2, Q6UVM3]", "pKd": "below the threshold"}
{"Binder": "IDNDTESTAL [ARHGAP17, Q68EM7]", "pKd": "below the threshold"}
{"Binder": "ERKLSSESQV [LRP4, O75096]", "pKd": 4.39}

These entries and their values trace back to paper PMC9482650.
